B1: Connector enhancer of kinase suppressor of ras 2, residues 9 to 71; numbered along this chain, Q8WXI2 (parent)
chain: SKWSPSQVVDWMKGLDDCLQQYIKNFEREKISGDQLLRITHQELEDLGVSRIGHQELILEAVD

# Variants of: B1
# experimental details: abundance fitness (aPCA) (normalised: wild type 0, dead -1); higher = more abundant; growth selection in yeast, the domain comes from the species named
# details: Homo sapiens
Note that class boundaries on abundance fitness are group 1 = under -0.4, group 2 = from -0.4 up to -0.07, group 3 = -0.07 and over

- variant notation: "L57R"
  class label: "group 2"
- variant notation: "H41T"
  class label: "group 3"
- variant notation: "C18L"
  class label: "group 1"
- variant notation: "L36A"
  class label: "group 1"
- variant notation: "K30D"
  class label: "group 2"
- variant notation: "G53C"
  class label: "group 3"
- variant notation: "L59I"
  class label: "group 2"
- variant notation: "Q20G"
  class label: "group 2"
- variant notation: "L47R"
  class label: "group 1"
- variant notation: "G14C"
  class label: "group 2"
- variant notation: "H54A"
  class label: "group 1"
- variant notation: "R51M"
  class label: "group 3"
- variant notation: "L37A"
  class label: "group 2"
- variant notation: "D34R"
  class label: "group 2"

Reference source: the Human Domainome abundance scans (Beltran et al. 2025)
